Data provenance: ChEMBL document CHEMBL1144475

Give measured inhibition for each item. Keep answers brief.
# Experimental target: UniProt P0C6U8
# Assay notes: Inhibition of SARS coronavirus His-3C-like protease at 100 uM
Non-standard residues stand in square brackets, D forms with d. Residues, ends and D or L forms follow the SMILES beside them. *: point of attachment. Ala(2-oxopyrrolidin-3S-yl) = N[C@@H](C[C@@H]1CCNC1=O)C(=O)O; X1 = Clc1cncc(O*)c1; Bn = c1ccc(C*)cc1

What value of measured inhibition is listed for O=S(=O)(Nc1cccnc1)c1cccs1 ?
< 10%

What value of measured inhibition is listed for O=C(OCc1cccnc1)c1cccs1 ?
19%

What value of measured inhibition is listed for Cc1ccc(OC(=O)c2cccs2)nc1 ?
< 10%

What value of measured inhibition is listed for O=C(Oc1cncc(Br)c1)c1ccco1 ?
99%

What value of measured inhibition is listed for Cc1ccc(OC(=O)c2cccs2)cn1 ?
< 10%

What value of measured inhibition is listed for O=C(OCc1cncc(Br)c1)c1ccco1 ?
90%

What value of measured inhibition is listed for O=C(Nc1ccc(Cl)cn1)c1cccs1 ?
< 10%

What value of measured inhibition is listed for O=C(Oc1cccc(Cl)c1)c1ccco1 ?
40%

What value of measured inhibition is listed for O=C(Nc1ccncc1)c1cccs1 ?
< 10%

What value of measured inhibition is listed for O=Cc1cc2ccccc2[nH]1 ?
39%

What value of measured inhibition is listed for CC(=O)N[C@H](C(=O)N[C@H](C(=O)N[C@@H](CC(C)C)C(=O)N[C@@H](C[C@@H]1CCNC1=O)C(=O)c1cccs1)[C@@H](C)O)C(C)C ?
23%

What value of measured inhibition is listed for O=C(Oc1cncc(Cl)c1)c1cc2ccccc2o1 ?
94%

What value of measured inhibition is listed for Cc1ccc(OC(=O)c2cccs2)c([N+](=O)[O-])n1 ?
15%

What value of measured inhibition is listed for O=C(Oc1cncc(Cl)c1)c1ccco1 ?
99%

What value of measured inhibition is listed for O=C(Oc1cccnc1Cl)c1cccs1 ?
20%

What value of measured inhibition is listed for O=Cc1ccc(-c2ccc(Cl)cc2)o1 ?
70%

What value of measured inhibition is listed for O=C(Oc1cccnc1)c1cccs1 ?
91%

What value of measured inhibition is listed for O=C(Oc1ccncc1)c1cccs1 ?
< 10%

What value of measured inhibition is listed for O=C(Nc1cccnc1)c1cccs1 ?
13%

What value of measured inhibition is listed for O=C(Nc1cccnc1Cl)c1cccs1 ?
< 10%

What value of measured inhibition is listed for O=C(Oc1cccc(Cl)n1)c1cccs1 ?
< 10%

What value of measured inhibition is listed for O=C(Nc1ccccn1)c1cccs1 ?
< 10%

What value of measured inhibition is listed for O=C(Oc1ccco1)c1cccnc1 ?
80%

What value of measured inhibition is listed for Clc1cncc(OCc2ccco2)c1 ?
11%

What value of measured inhibition is listed for O=C(Oc1cncc(Cl)c1)c1ccc[nH]1 ?
65%

What value of measured inhibition is listed for O=C(Oc1ccc(Cl)nc1)c1cccs1 ?
13%

What value of measured inhibition is listed for CC(=O)N[C@H](C(=O)N[C@H](C(=O)N[C@@H](CC(C)C)C(=O)N[C@@H](C[C@@H]1CCNC1=O)C(=O)Oc1cncc(Cl)c1)[C@@H](C)OCc1ccccc1)C(C)C (Ac-VT(Bn)L[Ala(2-oxopyrrolidin-3S-yl)]-X1) ?
< 10%
